tested on: H. influenzae strains; experiment: MIC against H. influenzae strains (Table M8); type: cell-based; conditions: Haemophilus influenzae, H. influenzae 49247; read-out: MIC H. influenzae (49247)
t if MIC is below 2 mg/L. f if not; exact matches included in f.

COMPOUND	QUALITATIVE_LABEL
CC[C@H]1OC(=O)[C@H](CC#N)C(=O)[C@H](C)[C@@H](O[C@@H]2OC(C)CC(N(C)C)C2O)[C@](C)(OC)C[C@@H](C)CN[C@H](C)[C@H]2N(CCCCn3cc(-c4cccc(N)c4)nn3)C(=O)O[C@]12C (some centres unmarked)	f
CC[C@H]1OC(=O)[C@H](C)C(=O)[C@H](C)[C@@H](O[C@@H]2OC(C)CC(N(C)C)C2O)[C@](C)(OC)C[C@@H](C)CN[C@H](C)[C@H]2N(CCCCn3cc(-c4ccccn4)nn3)C(=O)O[C@]12C (some centres unmarked)	t
CC[C@H]1OC(=O)[C@H](C)C(=O)[C@H](C)[C@@H](O[C@@H]2OC(C)CC(N(C)C)C2O)[C@](CCO)(OC)C[C@@H](C)CN[C@H](C)[C@H]2N(CCCCn3cc(-c4cccc(N)c4)nn3)C(=O)O[C@]12C (some centres unmarked)	f
CC[C@H]1OC(=O)[C@H](Cc2cncs2)C(=O)[C@H](C)[C@@H](O[C@@H]2OC(C)CC(N(C)C)C2O)[C@](C)(OC)C[C@@H](C)CN[C@H](C)[C@H]2N(CCCCn3cc(-c4cccc(N)c4)nn3)C(=O)O[C@]12C (some centres unmarked)	f
CC[C@H]1OC(=O)C(C)(F)C(=O)[C@H](C)[C@@H](O[C@@H]2OC(C)CC(N(C)C)C2O)[C@](C)(OC)C[C@@H](C)CN[C@H](C)[C@H]2N(CCCCn3cc(-c4cccc(N)c4)nn3)C(=O)O[C@]12C (some centres unmarked)	t
CC[C@H]1OC(=O)[C@H](C)C(=O)[C@H](C)[C@@H](O[C@@H]2OC(C)CC(N(C)C)C2O)[C@](C)(OC)C[C@@H](C)CN(C(C)=O)[C@H](C)[C@H]2N(CCCCn3cc(-c4cccc(N)c4)nn3)C(=O)O[C@]12C (some centres unmarked)	f
CC[C@H]1OC(=O)C(C)(F)C(=O)[C@H](C)[C@@H](O[C@@H]2OC(C)CC(N(C)C)C2O)[C@](C)(OC)C[C@@H](C)CN[C@H](C)[C@H]2N(CCCCn3cc(-c4ccccn4)nn3)C(=O)O[C@]12C (some centres unmarked)	t
CC[C@H]1OC(=O)[C@H](C)C(=O)C[C@@H](O[C@@H]2OC(C)CC(N(C)C)C2O)[C@](C)(OC)C[C@@H](C)CN[C@H](C)[C@H]2N(CCCCn3cc(-c4cccc(N)c4)nn3)C(=O)O[C@]12C (some centres unmarked)	t
CC[C@H]1OC(=O)[C@H](C)C(O)[C@H](C)[C@@H](O[C@@H]2OC(C)CC(N(C)C)C2O)[C@](C)(OC)C[C@@H](C)CN(C)[C@H](C)[C@H]2N(CCCCn3cc(-c4cccc(N)c4)nn3)C(=O)O[C@]12C (some centres unmarked)	f
CC[C@H]1OC(=O)[C@H](C)C(=O)[C@H](C)[C@@H](O[C@@H]2OC(C)CC(N(C)C)C2O)[C@](C)(OC)C[C@@H](C)CN[C@H](C)[C@H]2N(CCCCn3cc(-c4cccnn4)nn3)C(=O)O[C@]12C (some centres unmarked)	t

Consider the additional compound presented here.
Query: Given the entry CC[C@H]1OC(=O)[C@H](CC(=O)OC(C)(C)C)C(=O)[C@H](C)[C@@H](O[C@@H]2OC(C)CC(N(C)C)C2O)[C@](C)(OC)C[C@@H](C)CN[C@H](C)[C@H]2N(CCCCn3cc(-c4cccc(N)c4)nn3)C(=O)O[C@]12C (some centres unmarked) , would its reported MIC be below 2 mg/L?
Reply: f

----------
tested on: EC882 E. coli imp; experiment: broth dilution MIC, E. coli EC882; assay type: cell-based; conditions: Escherichia coli
Known log10 of MIC of a selection of compounds
// stored as log10 of MIC expressed in µg/mL

COMPOUND	log10 of MIC
CC[C@H]1OC(=O)[C@H](C)C(=O)[C@H](C)[C@@H](O[C@@H]2OC(C)CC(N(C)C)C2O)[C@](C)(OC)C[C@@H](C)CN[C@H](C)[C@H]2N(CCCCn3cc(-c4cccc(N)c4)nn3)C(=O)O[C@]12C (some centres unmarked)	-1.20
CC[C@H]1OC(=O)[C@](C)(F)C(=O)C[C@@H](O[C@@H]2OC(C)CC(N(C)C)C2O)[C@](C)(OC)C[C@@H](C)CN[C@H](C)[C@H]2N(CCCCn3cc(-c4cccc(N)c4)nn3)C(=O)O[C@]12C (some centres unmarked)	0.30
CC[C@H]1OC(=O)[C@H](C)C(=O)C[C@@H](O[C@@H]2OC(C)CC(N(C)C)C2O)[C@](C)(OC)C[C@@H](C)CN(C(C)=O)[C@H](C)[C@H]2N(CCCCN=[N+]=[N-])C(=O)O[C@]12C (some centres unmarked)	0.90
CC[C@H]1OC(=O)[C@H](C)[C@@H](O[C@H]2C[C@@](C)(OC)[C@@H](O)[C@H](C)O2)[C@H](C)[C@@H](O[C@@H]2O[C@H](C)C[C@H](N(C)C)[C@H]2O)[C@](C)(O)C[C@@H](C)C(=O)[C@H](C)[C@@H](O)[C@]1(C)O [Erythromycin, erythromycin, reference compound]	0.30
CC[C@H]1OC(=O)[C@H](C)C(=O)C[C@@H](O[C@@H]2OC(C)CC(N(C)C)C2O)[C@](C)(OC)C[C@@H](C)CN(C(C)=O)[C@H](C)[C@H]2N(CCCCn3cc(-c4ccccn4)nn3)C(=O)O[C@]12C (some centres unmarked)	0.00
CC[C@H]1OC(=O)C(C)(F)C(=O)[C@@H](C)[C@@H](O[C@@H]2OC(C)CC(N(C)C)C2O)[C@](C)(OC)C[C@@H](C)CN[C@H](C)[C@H]2N(CCCCn3cc(-c4cccc(N)c4)nn3)C(=O)O[C@]12C (some centres unmarked)	0.00
CC[C@H]1OC(=O)C(C)(F)C(=O)[C@@H](C)[C@@H](O[C@@H]2OC(C)CC(N(C)C)C2O)[C@](C)(OC)C[C@@H](C)CN[C@H](C)[C@H]2N(CCCCn3cc(-c4ccccn4)nn3)C(=O)O[C@]12C (some centres unmarked)	-0.60
CC[C@H]1OC(=O)[C@H](C)C(=O)C[C@@H](O[C@@H]2OC(C)CC(N(C)C)C2O)[C@](C)(OC)C[C@@H](C)CN(C(C)=O)[C@H](C)[C@H]2N(CCCCn3cc(-c4cccnn4)nn3)C(=O)O[C@]12C (some centres unmarked)	1.20
CC[C@H]1OC(=O)[C@](C)(F)C(=O)C[C@@H](O[C@@H]2OC(C)CC(N(C)C)C2O)[C@](C)(OC)C[C@@H](C)CN[C@H](C)[C@H]2N(CCCCn3cc(-c4nccs4)nn3)C(=O)O[C@]12C (some centres unmarked)	0.60
CC[C@H]1OC(=O)[C@](C)(F)C(=O)C[C@@H](O[C@@H]2OC(C)CC(N(C)C)C2O)[C@](C)(OC)C[C@@H](C)CN[C@H](C)[C@H]2N(CCCCn3cc(-c4ccccn4)nn3)C(=O)O[C@]12C (some centres unmarked)	0.60

Moving on to another compound below.
Query: Could you share which log10 of MIC value was measured for CC[C@H]1OC(=O)[C@H](C)C(=O)C[C@@H](O[C@@H]2OC(C)CC(N(C)C)C2O)[C@](C)(OC)C[C@@H](C)CN[C@H](C)[C@H]2N(CCCCn3cc(-c4nc5ccccc5s4)nn3)C(=O)O[C@]12C (some centres unmarked) ?
Reply: -1.20

----------
Reported MIC values are given for each entry in this list.
tested on: H. influenzae strains; experiment: MIC against H. influenzae strains (Table M8); format: cell-based; conditions: Haemophilus influenzae, H. influenzae 49247; read-out: MIC H. influenzae (49247)
Kindly provide the numeric value in µg/mL only, without the unit symbol.

Below, 2 compounds whose answers are already recorded.
COMPOUND	TESTED_TARGET	MIC, µg/mL
CC[C@H]1OC(=O)[C@H](Cc2cn[nH]c2)C(=O)[C@H](C)[C@@H](O[C@@H]2OC(C)CC(N(C)C)C2O)[C@](C)(OC)C[C@@H](C)CN[C@H](C)[C@H]2N(CCCCn3cc(-c4cccc(N)c4)nn3)C(=O)O[C@]12C (stereo partly drawn)	H. influenzae strains	8
CC[C@H]1OC(=O)[C@H](C)C(=O)[C@H](C)[C@@H](O[C@@H]2OC(C)CC(N(C)C)C2O)[C@](C)(OC)C[C@@H](C)CN[C@H](C)[C@H]2N(C/C=C/Cn3cc(-c4ccccn4)nn3)C(=O)O[C@]12C (stereo partly drawn)	H. influenzae strains	0.5

Query: Could you tell me which MIC is on file for CC[C@H]1OC(=O)[C@H](C)C(=O)[C@H](C)[C@@H](O[C@@H]2OC(C)CC(N(C)C)C2O)[C@](C)(OC)C[C@@H](C)CN[C@H](Cc2cccc(Br)c2)[C@H]2N(CCCCn3cc(-c4cccc(N)c4)nn3)C(=O)O[C@]12C (stereo partly drawn) ?
Reply: 8
